- TARGET_DESC: Aspartate--tRNA(Asp/Asn) ligase (Mycobacterium tuberculosis (strain ATCC 25618 / H37Rv))
- Sequence (whole entry): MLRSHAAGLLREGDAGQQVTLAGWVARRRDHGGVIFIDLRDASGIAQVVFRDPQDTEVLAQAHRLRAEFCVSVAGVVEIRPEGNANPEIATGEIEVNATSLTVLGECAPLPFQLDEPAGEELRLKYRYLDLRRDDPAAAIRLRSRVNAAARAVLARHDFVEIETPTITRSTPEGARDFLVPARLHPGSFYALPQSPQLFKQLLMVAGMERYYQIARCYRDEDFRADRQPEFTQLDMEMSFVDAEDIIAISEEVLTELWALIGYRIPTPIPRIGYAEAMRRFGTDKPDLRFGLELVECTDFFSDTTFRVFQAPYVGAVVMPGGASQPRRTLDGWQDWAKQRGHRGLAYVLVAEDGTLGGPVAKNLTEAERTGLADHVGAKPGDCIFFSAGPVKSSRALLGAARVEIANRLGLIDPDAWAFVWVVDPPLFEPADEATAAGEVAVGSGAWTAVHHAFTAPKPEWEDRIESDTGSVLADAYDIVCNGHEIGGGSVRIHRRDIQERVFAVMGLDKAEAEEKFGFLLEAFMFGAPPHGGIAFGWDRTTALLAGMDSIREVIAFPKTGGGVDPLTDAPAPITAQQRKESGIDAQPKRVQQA
- TEST_METHOD_NOTES: Assay for Asp RNA synthetase-1 from Mycobacterium tuberculosis
- Format: functional
- Parameters: scale not given: in the data most compounds retested in dose-response had high values
- PARTICULARS: 30 µM
READOUT: Percent Effect (%)

> print(dat)
                                    molecule  reported.measurement
 1  CC(CN1CCC2(CC1)c1nc[nH]c1CCN2S(C)(=O)=O)C(F)(F)F (stereo unspecified)                  2.76
 2  Cc1nn(C)c(C)c1C1CCCN1Cc1nc(C)c2ccccc2n1 (stereo unspecified)                 0.742
 3  c1cnc(N2CCCC3(CCN(Cc4ccncc4)C3)C2)nc1 (stereo unspecified)                  4.42
 4     CNc1nc(CNC(=O)Nc2cccc(-c3nnco3)c2)cs1                  2.65
 5          CCn1cc(Br)c(C(=O)NCc2cnn(C)c2)n1                 -2.73
 6  N#Cc1ccccc1C(=O)N1C[C@H](CO)C[C@H](CN2CCCC2)C1                 -4.69
 7  Cc1ccc(C(=O)O)cc1S(=O)(=O)Nc1nn(-c2ccccc2)cc1C                  5.61
 8  Cn1ncc2c(=O)[nH]c(CN3CCCC3CC3CCCCC3)nc21 (stereo unspecified)                 -3.06
 9  Cc1nn(-c2ccccc2)c(C)c1CNC1CCc2ncnn2C1 (stereo unspecified)                 -2.94
10  COCC(=O)N1CCCC1c1cc(Nc2nnc(C)s2)nc(C)n1 (stereo unspecified)                 -3.43
11  Cn1cc(C(=O)NCC2CCN(C(=O)NCC(F)(F)F)CC2)cn1                  2.43

// data source = ChEMBL document CHEMBL3988442
